Here the recorded Plant response rating, Goosegrass is given for each entry.
# Test system: goosegrass (Eleusine indica)
# assay-notes: Test B pre-/postemergence plant response
# Format: in vivo
# test-parameters: Postemergence, 250 g ai/ha; scale 0 to 100 (0 no effect, 100 complete control)
In your answer, state the number alone without any accompanying words.

Example cases with answers are listed next.
compound	Plant response rating, Goosegrass
CCCc1ncc(C(=O)C2=C(O)CCCC2=O)c(=O)n1-c1ccccc1C [Compound 73]	80
Cc1ccc(-c2ncc(C(=O)C3=C(O)CCCC3=O)c(=O)n2-c2ccccc2)cc1 [Compound 80]	85
COCCn1c(-c2ccccc2)ncc(C(=O)C2=C(O)CCCC2=O)c1=O [Compound 85]	85
CCCc1ncc(C(=O)C2=C(O)CCCC2=O)c(=O)n1CC1CCCO1 (centres unmarked) [Compound 74]	85

Below: the item to evaluate.
-- ask Can you look up Plant response rating, Goosegrass on goosegrass (Eleusine indica) for COCCn1c(-c2cccc(C)c2)ncc(C(=O)C2=C(O)CCCC2=O)c1=O [Compound 117] ?
-- reply 85

* * *

Here the recorded Plant response rating, Chickweed is given for each entry.
# Tested on: chickweed (Stellaria media)
# assay-notes: Test B postemergence plant response
# Format: in vivo
# test-parameters: Postemergence, 250 g ai/ha; scale 0 to 100 (0 no effect, 100 complete control)
In your answer, state the number alone without any accompanying words.

Example cases with answers are listed next.
molecule	Plant response rating, Chickweed
O=C1CCCC(O)=C1C(=O)c1cnc(-c2ccsc2)n(-c2ccccc2)c1=O	98
CCCc1ncc(C(=O)C2=C(O)CCCC2=O)c(=O)n1-c1ccccc1C	100

-- ask Return reported Plant response rating, Chickweed; argument: CCCc1ncc(C(=O)C2=C(O)CCCC2=O)c(=O)n1CC1CCCO1 (centres unmarked)
-- reply 100

-- ask Also CCCn1c(-c2ccc(F)cc2)ncc(C(=O)C2=C(O)CCCC2=O)c1=O , if possible.
-- reply 100

-- ask Also COCCn1c(-c2cccc(C)c2)ncc(C(=O)C2=C(O)CCCC2=O)c1=O , if possible.
-- reply 100

* * *

Here the recorded Plant response rating, Lambsquarters is given for each entry.
# Tested on: lambsquarters (Chenopodium album)
# assay-notes: Test B pre-/postemergence plant response
# Assay type: in vivo
# test-parameters: Preemergence, 31 g ai/ha; scale 0 to 100 (0 no effect, 100 complete control)
In your answer, state the number alone without any accompanying words.

Example cases with answers are listed next.
compound	obs-value
COCCCn1c(-c2cc(F)cc(F)c2)ncc(C(=O)C2=C(O)CCCC2=O)c1=O	100
Cc1cc(C)cc(-n2c(-c3ccccc3)ncc(C(=O)C3=C(O)CCCC3=O)c2=O)c1	98
COc1ccc(-n2c(-c3ccccc3)ncc(C(=O)C3=C(O)CCCC3=O)c2=O)cc1OC	100

Below: the item to evaluate.
-- ask Return reported Plant response rating, Lambsquarters; argument: CCCCn1c(-c2cc(F)cc(F)c2)ncc(C(=O)C2=C(O)C3CCC(C3)C2=O)c1=O (stereo not shown)
-- reply 100

* * *

# Tested on: wild oat (Avena fatua)
# assay-notes: Test B pre-/postemergence plant response
# Assay type: in vivo
# test-parameters: 250 g ai/ha, Preemergence, 0 to 100 scale
assay-metric: Plant response rating, Oat, Wild
In your answer, state the number alone without any accompanying words.

Example cases with answers are listed next.
CCCCc1ncc(C(=O)C2=C(O)CCCC2=O)c(=O)n1-c1ccccc1 0
Cc1c(Cl)cccc1-n1c(-c2ccccc2)ncc(C(=O)C2=C(O)CCCC2=O)c1=O 30
Cc1cccc(Cl)c1-n1c(-c2ccccc2)ncc(C(=O)C2=C(O)CCCC2=O)c1=O 0
O=C1CCCC(O)=C1C(=O)c1cnc(-c2ccccc2)n(-c2cccc(Br)c2)c1=O 20

Below: the item to evaluate.
-- ask Can you look up Plant response rating, Oat, Wild on wild oat (Avena fatua) for Cc1ccccc1-n1c(-c2cccc(Cl)c2)ncc(C(=O)C2=C(O)CCCC2=O)c1=O ?
-- reply 0
